This collection of values is drawn from PubChem BioAssay AID1919006.

List of viability, T/C values.
Tested on: 885512-296-R-J2-PDC complex spheroid growth, % test/control;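 note: spheroids exposed to compounds for seven days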
Experiment: Anticancer human tumor 885512-296-R-J2-PDC patient-derived breast carcinoma cell line growth inhibition [AhR]
Conditions: second compound 10 µM; first compound 0.0316 µM; stronger effect = lower value
Quantity Measured: viability, T/C (%)

[[record]]
compound = "COc1cccc2c1C(=O)c1c(O)c3c(c(O)c1C2=O)CC(O)(C(=O)CO)CC3OC1CC(N)C(O)C(C)O1 (stereo not given) + CC(CO)NC(=O)c1cc(-c2ccc(Cl)cc2)nn(-c2cnn(C)c2)c1=O"
quantity_measured = "viability, T/C"
unit_of_measurement = "%"
number = 15.4

[[record]]
compound = "Nc1ccn(C2OC(CO)C(O)C2(F)F)c(=O)n1 (stereo not given) + Cc1ccccc1N=Nc1ccc(NC(=O)c2ccnn2C)c(C)c1"
quantity_measured = "viability, T/C"
unit_of_measurement = "%"
number = 3.17

[[record]]
compound = "COc1cc(Nc2ncc3c(n2)-c2ccc(Cl)cc2C(c2c(F)cccc2OC)=NC3)ccc1C(=O)O + Cc1ccccc1N=Nc1ccc(NC(=O)c2ccnn2C)c(C)c1"
quantity_measured = "viability, T/C"
unit_of_measurement = "%"
number = 45.6

[[record]]
compound = "CC1(C)CCC(CN2CCN(c3ccc(C(=O)NS(=O)(=O)c4ccc(NCC5CCOCC5)c([N+](=O)[O-])c4)c(Oc4cnc5[nH]ccc5c4)c3)CC2)=C(c2ccc(Cl)cc2)C1 + CC(CO)NC(=O)c1cc(-c2ccc(Cl)cc2)nn(-c2cnn(C)c2)c1=O"
quantity_measured = "viability, T/C"
unit_of_measurement = "%"
number = 106

[[record]]
compound = "COc1ccc([C@@H](O)c2cc(-c3ncnc4cc(N5CCOCC5)ccc34)c(F)cc2Cl)nn1 + Cc1cncc(-c2nc(NCCc3c[nH]c4ccccc34)c3ncn(C(C)C)c3n2)c1"
quantity_measured = "viability, T/C"
unit_of_measurement = "%"
number = 18.1

